assay: AUC in male Sprague-Dawley rat at 10 mg/kg, iv administered as bolus injection and measured after 48 hrs by LC-MS/MS analysis; format: ADME, organism-based; conditions: in vivo
metric-name: AUC at 48 h (ng·h/mL)
Could you give me the number in ng·h/mL? Just the number is fine.

Return AUC at 48 h (reported value) for this compound: `CN[C@@H]1[C@H](O)[C@H](NC)[C@H]2O[C@]3(O)[C@H](O[C@@H]2[C@H]1O)O[C@H](C)C[C@H]3NC(=O)Cc1ccc(O)cn1`
22000

----------
molecular target: Bacterial 70S ribosome; assay: Inhibition of ribosome-mediated protein synthesis in Mycobacterium smegmatis
metric-name: IC50

# count of solved cases: 2
CN[C@@H]1[C@H](O)[C@H](NC)[C@H]2O[C@@]3(O)C(=O)C[C@@H](C)O[C@H]3O[C@@H]2[C@H]1O [SPECTINOMYCIN]: 1080 nM
CN[C@@H]1[C@H](O)[C@H](NC)[C@H]2O[C@]3(O)[C@H](O[C@@H]2[C@H]1O)O[C@H](C)C[C@H]3NC(=O)Cc1ccc(OP(=O)(O)O)cn1: 12200 nM

Continue with the next molecule.
Entry `CN[C@@H]1[C@H](O)[C@H](NC)[C@H]2O[C@]3(O)[C@H](O[C@@H]2[C@H]1O)O[C@H](C)C[C@H]3NC(=O)Cc1ccc(O)cn1` needs its IC50 filled in; supply it.
1790 nM
